- SYSTEM_TESTED: 5-hydroxytryptamine receptor 1A (Homo sapiens)
- Sequence (P08908 whole entry): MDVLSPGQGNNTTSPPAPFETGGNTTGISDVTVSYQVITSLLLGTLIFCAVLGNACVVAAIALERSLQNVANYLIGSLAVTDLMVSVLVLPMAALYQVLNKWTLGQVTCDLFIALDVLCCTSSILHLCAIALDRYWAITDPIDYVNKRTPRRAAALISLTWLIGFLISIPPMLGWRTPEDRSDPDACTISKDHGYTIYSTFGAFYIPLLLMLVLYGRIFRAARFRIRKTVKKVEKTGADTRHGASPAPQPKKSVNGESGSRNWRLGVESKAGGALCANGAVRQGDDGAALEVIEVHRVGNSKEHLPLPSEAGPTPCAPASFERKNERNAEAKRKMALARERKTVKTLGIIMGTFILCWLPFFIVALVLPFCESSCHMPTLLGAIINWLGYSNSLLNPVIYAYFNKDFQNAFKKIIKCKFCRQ
- TEST_METHOD_NOTES: Binding affinity at human 5-hydroxytryptamine 1A receptor by inhibition of [3H]8-OH-DPAT binding in Chinese hamster ovary cell line
Hi there, I'd appreciate the recorded pKi for every entry that follows.
Answers are plain numbers, as −log10 of the molar value.

Would you mind listing pKi for each of the following compounds?
1. O[C@@H]1c2ccc(F)cc2C[C@H]1N1CCN(c2cccc3c2OCCC3)CC1 (relative stereo)
2. Cc1ccc2c(c1)C[C@@H](N1CCC(c3cccc4c3OCCO4)CC1)[C@@H]2O (relative stereo)
3. O[C@@H]1c2ccc(F)cc2C[C@H]1N1CCN(c2cccc3c2OCCO3)CC1 (racemic)
4. O[C@@H]1c2ccc(F)cc2C[C@H]1N1CC=C(c2cccc3c2OCCO3)CC1 (relative stereo)
5. O[C@H]1c2ccccc2C[C@H]1N1CC=C(c2cccc3c2OCCO3)CC1 (relative stereo)

Given back:
1. 8.89
2. 8.93
3. 8.90
4. 9.07
5. 7.64
